B1: tRNA (parent)
chain: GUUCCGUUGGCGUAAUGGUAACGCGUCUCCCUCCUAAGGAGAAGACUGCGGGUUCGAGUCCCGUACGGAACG

- Variants of: B1
- assay-remarks: yeast fitness relative to wild type (ratio to wild type); higher = fitter; tRNA-Arg(CCU), competitive growth, 37 C, YPD
Fewer inactive variants are shown than the library holds.
property-measured: yeast fitness

INSERT INTO assay_data (mutant_name, property_measured, experimental_value) VALUES
  ('G10A A36C', 'yeast fitness', '≤ 0.5'),
  ('C5G G6C', 'yeast fitness', 0.718),
  ('A21U G23A A37U', 'yeast fitness', '≤ 0.5');

Ask: Please report the recorded yeast fitness for U7A C31U .
Reply: 0.683

Ask: Please report the recorded yeast fitness for C5A G17A G25A G48C .
Reply: ≤ 0.5

Ask: Please report the recorded yeast fitness for C11A C34G U35G G39A .
Reply: ≤ 0.5

Ask: Please report the recorded yeast fitness for C5G C11G A14U A15U A69C .
Reply: ≤ 0.5

Ask: Please report the recorded yeast fitness for A15C A21U G39A .
Reply: ≤ 0.5

Ask: Please report the recorded yeast fitness for C4G G18C G68A .
Reply: ≤ 0.5

Ask: Please report the recorded yeast fitness for C4U U19C A37U C62A .
Reply: ≤ 0.5

Ask: Please report the recorded yeast fitness for C11A A21C C55U C62U G67C .
Reply: 0.529

Ask: Please report the recorded yeast fitness for G48A C60G A65U .
Reply: ≤ 0.5

Ask: Please report the recorded yeast fitness for A20G C27A C31A .
Reply: ≤ 0.5

Ask: Please report the recorded yeast fitness for G6A A43G .
Reply: 0.801

Ask: Please report the recorded yeast fitness for C11U C24U C29G G38A A40C .
Reply: ≤ 0.5

Ask: Please report the recorded yeast fitness for C31U C33U A42C C49U A65C .
Reply: ≤ 0.5

Ask: Please report the recorded yeast fitness for G6C A65U .
Reply: 0.917

Ask: Please report the recorded yeast fitness for C4G G6C G25A C29A C31A C33G G41C .
Reply: ≤ 0.5

Ask: Please report the recorded yeast fitness for A42G U47G G68U .
Reply: ≤ 0.5

Ask: Please report the recorded yeast fitness for A21G C66U .
Reply: 0.858

Ask: Please report the recorded yeast fitness for U35C C61G A69G .
Reply: ≤ 0.5

Ask: Please report the recorded yeast fitness for C5G G17A A20C C49G G63A .
Reply: ≤ 0.5

Ask: Please report the recorded yeast fitness for A15G G41A .
Reply: 0.854

Ask: Please report the recorded yeast fitness for C4U C31U .
Reply: 0.966
